- measurement-target: Type-1 angiotensin II receptor (Homo sapiens, UniProt P30556)
- Sequence (P30556 whole entry): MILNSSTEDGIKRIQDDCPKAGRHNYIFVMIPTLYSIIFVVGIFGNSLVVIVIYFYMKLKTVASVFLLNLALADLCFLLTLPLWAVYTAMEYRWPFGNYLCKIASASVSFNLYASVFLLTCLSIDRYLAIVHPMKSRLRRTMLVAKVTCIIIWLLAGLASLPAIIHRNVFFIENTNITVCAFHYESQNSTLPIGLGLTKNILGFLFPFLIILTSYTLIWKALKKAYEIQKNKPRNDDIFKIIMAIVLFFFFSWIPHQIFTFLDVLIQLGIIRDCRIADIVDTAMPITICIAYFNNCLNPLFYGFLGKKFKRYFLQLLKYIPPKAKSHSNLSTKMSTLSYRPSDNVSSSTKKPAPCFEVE
- assay-summary: Binding affinity for Angiotensin II receptor, type 1
pIC50: −log10 of the molar value.
observable: pIC50

compound	pIC50
CCCc1nc(CC)c(C(=O)OCCN(C(=O)OCCC(C)C)c2ccccc2)n1Cc1ccc(-c2ccccc2S(=O)(=O)NC(=O)OCCC(C)C)cc1F	9.70

A. CCCCN(Cc1ccccc1)C(=O)CCCOC(=O)c1c(CC)nc(CCC)n1Cc1ccc(-c2ccccc2-c2nn[nH]n2)cc1
B. CCCc1nc(CC)c(C(=O)OCc2ccccc2C(=O)c2ccccc2)n1Cc1ccc(-c2ccccc2S(=O)(=O)NC(=O)OCCC(C)C)cc1F
C. CCCc1nc(CC)c(C(=O)OCc2ccccc2[S+]([O-])c2ccccc2)n1Cc1ccc(-c2ccccc2S(=O)(=O)NC(=O)OCCC(C)C)cc1F (centres undefined)
Task: Order these by pIC50, descending, and give the full ranking. I'd appreciate it if you listed the labels in the requested order.
Output: C, B, A
(C: 9.70, B: 9.30, A: 8.00)

Every entry's value here was drawn from ChEMBL document CHEMBL1150518.
